- tested.system: Nuclear receptor ROR-gamma (Mus musculus) (UniProt P51450)
- Sequence (P51450 whole entry, looked up): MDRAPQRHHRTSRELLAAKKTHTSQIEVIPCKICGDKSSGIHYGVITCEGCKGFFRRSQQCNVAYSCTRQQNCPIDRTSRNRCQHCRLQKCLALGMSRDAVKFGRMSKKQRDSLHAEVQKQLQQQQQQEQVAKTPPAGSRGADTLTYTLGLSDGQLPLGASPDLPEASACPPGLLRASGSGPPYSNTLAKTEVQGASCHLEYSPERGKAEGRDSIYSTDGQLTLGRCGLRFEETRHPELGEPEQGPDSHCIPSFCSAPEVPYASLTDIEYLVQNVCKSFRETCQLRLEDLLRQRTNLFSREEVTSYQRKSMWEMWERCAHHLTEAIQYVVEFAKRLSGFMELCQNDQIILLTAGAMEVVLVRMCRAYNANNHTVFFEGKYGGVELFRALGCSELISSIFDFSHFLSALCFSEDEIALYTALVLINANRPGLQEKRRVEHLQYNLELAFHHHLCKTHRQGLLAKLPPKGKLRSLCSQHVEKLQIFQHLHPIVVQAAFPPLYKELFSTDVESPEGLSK
- test.summary: qHTS for inhibitors of ROR gamma transcriptional activity; also: nearly all actives have a fitted effect of over 60% in size
- test.conditions: Drosophila S2 Gal4-RORgamma UAS-luciferase reporter, 20 h; series mostly up to 53.6 µM
Screen size: about 310,000 compounds; about 17,000 (5.5%) were called active. Not shown: some 11% with an inconclusive outcome. Calls follow the shape of the dose curve; as a rule, active = well fitted inhibition curve with a large enough effect; inconclusive = small, poorly fitted or top-dose-only effect, or effect the other way; inactive = no such curve, though single readings can be large or run the other way. The full list was thinned out, with actives kept by preference.
Classes to choose from: active, inactive

Worked examples follow.
>  <molecule>
ClCCBr

>  <assigned.label>
inactive

$$$$
>  <molecule>
Clc1ccc([C@@H]2C[C@H]3CC[C@@H]2N3)cn1

>  <assigned.label>
inactive

$$$$
>  <molecule>
C[C@@]12CC[C@H]3[C@@H](CC[C@]4(O)C[C@H](O)CC[C@@]34C=O)[C@]1(O)CC[C@@H]2C1=CC(=O)OC1

>  <assigned.label>
inactive

$$$$

Dear colleague, could you share the recorded outcome for "N#CCCCl" when you have a moment? inactive

Status in this test for "O=C(N/N=C/c1c(O)n(C2CC2)c(=S)[nH]c1=O)c1ccccc1" ? active

---

- tested.system: Nuclear receptor ROR-gamma (Mus musculus)
- test.summary: qHTS for inhibitors of ROR gamma transcriptional activity; also: nearly all actives have a fitted effect of over 60% in size
- test.conditions: Drosophila S2 Gal4-RORgamma UAS-luciferase reporter, 20 h; series mostly up to 53.6 µM
Out of some 310,000 compounds screened, about 17,000 (5.5%) were called active. About 11% were inconclusive and are not listed. The call rests on the fitted dose curve; in most records, active means well fitted inhibition curve with a large enough effect; inconclusive means small, poorly fitted or top-dose-only effect, or effect the other way; inactive means no such curve, though single readings can be large or run the other way. Many of the other results were omitted from the sample, so actives are more common in it than they were.
Your response should consist of one outcome taken from active, inactive

>  <compound>
CC1=CC(=O)C2=C(C)C[C@H](O)[C@H]3[C@H](C)C(=O)O[C@@H]3C12 (stereo not given in full)

>  <assigned.label>
inactive

$$$$

# outcome recorded in this test, key = "CCCCC(=O)N/N=C/c1c(O)n(CC)c(=S)n(CC)c1=O" active

Called result for "CC[N+](C)(CC)CCC[n+]1c(-c2ccccc2)c2cc(N)ccc2c2ccc(N)cc21" active

Identify the outcome logged in this assay for the compound shown: "CCCCC(=O)N/N=C/c1c(O)n(CCC2=CCCCC2)c(=O)[nH]c1=O" inactive

Write down the call the test reported for this compound. Item: "CCCCCn1c(=O)c(C(=O)NCc2ccccn2)c(O)c2ccccc21" active

---

- tested.system: Nuclear receptor ROR-gamma (Mus musculus) (UniProt P51450)
- test.summary: qHTS for inhibitors of ROR gamma transcriptional activity; also: nearly all actives have a fitted effect of over 60% in size
- test.conditions: Drosophila S2 Gal4-RORgamma UAS-luciferase reporter, 20 h; series mostly up to 53.6 µM
The campaign covered roughly 310,000 compounds. About 17,000 (5.5%) were called active. Inconclusive results (about 11%) are left out. Calls come from the whole dose curve; as a rule, active = well fitted inhibition curve with a large enough effect; inconclusive = small, poorly fitted or top-dose-only effect, or effect the other way; inactive = no such curve, though single readings can be large or run the other way. What follows is part of a selection rich in actives, with near analogues and random picks from the rest.
One label from this list, please: 1 (active), -1 (inactive)

Check out these entries, answers already filled in.
>  <compound>
COC1CC(OC2CC[C@@]3(C=O)C4CC[C@]5(C)C(C6=CC(=O)OC6)CC[C@@]5(O)C4CC[C@]3(O)C2)OC(C)C1O (stereo not given in full)

>  <assigned.label>
-1

$$$$
>  <compound>
Fc1ccc(C(OCCN2CCN(C/C=C\c3ccccc3)CC2)c2ccc(F)cc2)cc1

>  <assigned.label>
1

$$$$

Record lookup: outcome of this test for COC([CH2][Hg])CNC(=O)c1ccccc1OCC(=O)O (stereo not given) ? -1

Assay result, entry "N#Cc1cc(Br)c(O)c(Br)c1" — outcome? -1

Could you check what this test reported for CNC(C)[C@@H](O)c1ccccc1 (stereo not given in full) ? -1
